conditions: both, human, plasma, oral, 60 mg
property.name: concentration at 16 hr (ng/mL)
Answer in ng/mL, number only, no unit symbol.

# input Looking for the measured concentration at 16 hr of O=C(OC1CC2CCC(C1)[N+]21CCCC1)C(O)(c1ccccc1)c1ccccc1.[Cl-] (stereo not shown) [Trospium] , can you help?
# output 0.676

* * *

conditions: both, human, plasma, oral, 60 mg
property.name: concentration at 24 hr (ng/mL)
Write down the numeric answer in ng/mL and omit the unit.

# input Please look up its concentration at 24 hr: O=C(OC1CC2CCC(C1)[N+]21CCCC1)C(O)(c1ccccc1)c1ccccc1.[Cl-] (stereo not shown) [Trospium]
# output 0.655
